Kindly state % Ctrl, TESK1 for each of the entries shown.
# subject.of.test: panel of 442 kinases (Homo sapiens)
# Construct: purchased KINOMEscan
# Format: binding
# conditions: kinase TESK1; compound concentration 10 µM
# number only, unit % Ctrl dropped from output

Problem: Print panel of 442 kinases (Homo sapiens) % Ctrl, TESK1 for COc1cc(C(=O)N2CCC(N3CCN(C)CC3)CC2)ccc1Nc1ncc2c(n1)N1CCc3cccc(c31)C(=O)N2C [Compound 24] .
Result: 84

Problem: Print panel of 442 kinases (Homo sapiens) % Ctrl, TESK1 for CCOc1cc(C(=O)N2CCC(N3CCN(C)CC3)CC2)ccc1Nc1ncc2c(n1)N(C1CCCC1)c1ccccc1C(=O)N2C [Compound 26] .
Result: 100

Problem: Print panel of 442 kinases (Homo sapiens) % Ctrl, TESK1 for COc1cc(C(=O)N2CCC(N3CCN(C)CC3)CC2)ccc1Nc1ncc2c(n1)N(C)c1ccccc1C(=O)N2C [15 (LRRK2-IN-1)] .
Result: 82

Problem: Print panel of 442 kinases (Homo sapiens) % Ctrl, TESK1 for COc1cc(C(=O)N2CCC(N3CCN(C)CC3)CC2)ccc1Nc1ncc2c(n1)N(C1CCCC1)c1ccccc1C(=O)N2C [Compound 25] .
Result: 100

* * *

Kindly state % Ctrl, SRPK1 for each of the entries shown.
# subject.of.test: panel of 442 kinases (Homo sapiens, UniProt Q96SB4)
# Construct: purchased KINOMEscan
# Sequence (Q96SB4 whole entry): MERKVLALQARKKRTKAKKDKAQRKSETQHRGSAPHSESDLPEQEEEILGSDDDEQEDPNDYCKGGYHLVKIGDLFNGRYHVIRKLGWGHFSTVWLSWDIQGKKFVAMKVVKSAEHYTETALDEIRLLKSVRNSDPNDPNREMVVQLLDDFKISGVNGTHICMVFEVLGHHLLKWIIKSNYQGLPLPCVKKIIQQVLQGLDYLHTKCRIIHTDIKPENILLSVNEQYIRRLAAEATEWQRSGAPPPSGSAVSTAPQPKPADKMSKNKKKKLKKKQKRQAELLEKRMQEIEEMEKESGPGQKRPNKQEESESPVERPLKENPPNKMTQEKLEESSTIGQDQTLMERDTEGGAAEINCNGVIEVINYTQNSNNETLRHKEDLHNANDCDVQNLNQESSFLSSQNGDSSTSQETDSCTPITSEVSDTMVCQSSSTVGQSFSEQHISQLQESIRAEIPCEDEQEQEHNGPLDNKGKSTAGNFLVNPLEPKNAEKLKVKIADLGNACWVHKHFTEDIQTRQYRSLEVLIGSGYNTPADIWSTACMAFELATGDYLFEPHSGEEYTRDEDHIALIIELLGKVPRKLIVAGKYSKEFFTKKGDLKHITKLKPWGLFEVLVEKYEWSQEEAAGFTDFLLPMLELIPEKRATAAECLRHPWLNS
# Format: binding
# conditions: kinase SRPK1; compound concentration 10 µM
# number only, unit % Ctrl dropped from output

Problem: Please list % Ctrl, SRPK1 recorded for the compound COc1cc(C(=O)N2CCC(N3CCN(C)CC3)CC2)ccc1Nc1ncc2c(n1)N1CCc3cccc(c31)C(=O)N2C
Result: 74

Problem: Please list % Ctrl, SRPK1 recorded for the compound COc1cc(C(=O)N2CCC(N3CCN(C)CC3)CC2)ccc1Nc1ncc2c(n1)N(C1CCCC1)c1ccccc1C(=O)N2C
Result: 90

Problem: Please list % Ctrl, SRPK1 recorded for the compound CCOc1cc(C(=O)N2CCC(N3CCN(C)CC3)CC2)ccc1Nc1ncc2c(n1)N(C1CCCC1)c1ccccc1C(=O)N2C
Result: 100

Problem: Please list % Ctrl, SRPK1 recorded for the compound COc1cc(C(=O)N2CCC(N3CCN(C)CC3)CC2)ccc1Nc1ncc2c(n1)N(C)c1ccccc1C(=O)N2C
Result: 94

* * *

# subject.of.test: panel of 442 kinases (Homo sapiens, UniProt Q14012)
# Construct: purchased KINOMEscan
# Sequence (Q14012 whole entry): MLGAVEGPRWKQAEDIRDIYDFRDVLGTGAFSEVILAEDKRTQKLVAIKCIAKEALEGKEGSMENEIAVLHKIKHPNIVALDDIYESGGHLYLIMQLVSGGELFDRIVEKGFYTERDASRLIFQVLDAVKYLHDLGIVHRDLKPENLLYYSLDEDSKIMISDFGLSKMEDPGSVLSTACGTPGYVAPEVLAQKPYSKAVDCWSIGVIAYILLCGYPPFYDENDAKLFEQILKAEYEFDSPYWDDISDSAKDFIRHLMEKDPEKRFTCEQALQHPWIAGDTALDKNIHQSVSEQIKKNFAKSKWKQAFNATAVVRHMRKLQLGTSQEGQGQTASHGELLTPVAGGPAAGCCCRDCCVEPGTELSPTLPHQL
# Type: binding
# conditions: Compound Concentration 10 µM
Kindly state KINOMEscan: CAMK1 for each of the entries shown.
Provide a numeric answer; units are not to be included.

Problem: Please list KINOMEscan: CAMK1 recorded for the molecule COc1cc(C(=O)N2CCC(N3CCN(C)CC3)CC2)ccc1Nc1ncc2c(n1)N(C1CCCC1)c1ccccc1C(=O)N2C [Compound 25]
Result: 48

Problem: Please list KINOMEscan: CAMK1 recorded for the molecule COc1cc(C(=O)N2CCC(N3CCN(C)CC3)CC2)ccc1Nc1ncc2c(n1)N1CCc3cccc(c31)C(=O)N2C [Compound 24]
Result: 68

Problem: Please list KINOMEscan: CAMK1 recorded for the molecule COc1cc(C(=O)N2CCC(N3CCN(C)CC3)CC2)ccc1Nc1ncc2c(n1)N(C)c1ccccc1C(=O)N2C [15 (LRRK2-IN-1)]
Result: 55

Problem: Please list KINOMEscan: CAMK1 recorded for the molecule CCOc1cc(C(=O)N2CCC(N3CCN(C)CC3)CC2)ccc1Nc1ncc2c(n1)N(C1CCCC1)c1ccccc1C(=O)N2C [Compound 26]
Result: 37

* * *

Kindly state KINOMEscan: PIK3CA(Q546K) for each of the entries shown.
# subject.of.test: panel of 442 kinases (Homo sapiens, UniProt P42336, Q546K)
# Construct: purchased KINOMEscan
# Sequence (P42336 whole entry Q546K): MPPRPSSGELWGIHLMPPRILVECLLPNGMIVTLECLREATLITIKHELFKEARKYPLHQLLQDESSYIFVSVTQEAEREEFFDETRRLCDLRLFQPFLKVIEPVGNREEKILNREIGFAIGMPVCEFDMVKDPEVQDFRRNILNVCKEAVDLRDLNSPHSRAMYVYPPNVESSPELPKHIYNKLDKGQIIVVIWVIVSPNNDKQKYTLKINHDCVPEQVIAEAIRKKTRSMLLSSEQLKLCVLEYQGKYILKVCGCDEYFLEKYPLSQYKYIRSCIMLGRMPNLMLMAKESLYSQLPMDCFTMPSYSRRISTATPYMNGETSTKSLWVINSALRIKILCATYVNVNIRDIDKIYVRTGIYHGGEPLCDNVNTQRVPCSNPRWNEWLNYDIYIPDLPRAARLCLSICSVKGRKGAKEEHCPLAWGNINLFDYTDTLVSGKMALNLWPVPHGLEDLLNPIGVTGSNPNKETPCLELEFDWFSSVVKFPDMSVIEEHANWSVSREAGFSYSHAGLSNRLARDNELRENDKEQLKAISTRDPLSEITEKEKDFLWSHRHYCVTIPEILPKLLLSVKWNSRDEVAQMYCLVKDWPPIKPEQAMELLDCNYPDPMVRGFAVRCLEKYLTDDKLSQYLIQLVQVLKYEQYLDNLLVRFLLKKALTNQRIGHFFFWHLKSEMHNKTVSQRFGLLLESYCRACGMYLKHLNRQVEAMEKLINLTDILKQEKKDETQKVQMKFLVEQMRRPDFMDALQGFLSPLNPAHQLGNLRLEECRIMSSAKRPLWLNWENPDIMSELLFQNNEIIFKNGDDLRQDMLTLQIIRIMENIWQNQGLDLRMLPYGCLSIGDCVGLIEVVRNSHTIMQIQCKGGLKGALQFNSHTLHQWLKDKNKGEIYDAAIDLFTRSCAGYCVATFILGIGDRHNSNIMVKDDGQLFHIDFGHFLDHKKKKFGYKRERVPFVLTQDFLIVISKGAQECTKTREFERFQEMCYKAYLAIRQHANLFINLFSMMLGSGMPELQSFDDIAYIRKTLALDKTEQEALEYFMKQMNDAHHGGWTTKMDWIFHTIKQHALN
# Type: binding
# conditions: Compound Concentration 10 µM
Provide a numeric answer; units are not to be included.

Problem: Please list KINOMEscan: PIK3CA(Q546K) recorded for the compound CCOc1cc(C(=O)N2CCC(N3CCN(C)CC3)CC2)ccc1Nc1ncc2c(n1)N(C1CCCC1)c1ccccc1C(=O)N2C
Result: 99

Problem: Please list KINOMEscan: PIK3CA(Q546K) recorded for the compound COc1cc(C(=O)N2CCC(N3CCN(C)CC3)CC2)ccc1Nc1ncc2c(n1)N(C1CCCC1)c1ccccc1C(=O)N2C
Result: 100

Problem: Please list KINOMEscan: PIK3CA(Q546K) recorded for the compound COc1cc(C(=O)N2CCC(N3CCN(C)CC3)CC2)ccc1Nc1ncc2c(n1)N(C)c1ccccc1C(=O)N2C
Result: 91

Problem: Please list KINOMEscan: PIK3CA(Q546K) recorded for the compound COc1cc(C(=O)N2CCC(N3CCN(C)CC3)CC2)ccc1Nc1ncc2c(n1)N1CCc3cccc(c31)C(=O)N2C
Result: 98

* * *

# subject.of.test: panel of 442 kinases (Homo sapiens, UniProt P48730)
# Construct: purchased KINOMEscan
# Sequence (P48730 whole entry): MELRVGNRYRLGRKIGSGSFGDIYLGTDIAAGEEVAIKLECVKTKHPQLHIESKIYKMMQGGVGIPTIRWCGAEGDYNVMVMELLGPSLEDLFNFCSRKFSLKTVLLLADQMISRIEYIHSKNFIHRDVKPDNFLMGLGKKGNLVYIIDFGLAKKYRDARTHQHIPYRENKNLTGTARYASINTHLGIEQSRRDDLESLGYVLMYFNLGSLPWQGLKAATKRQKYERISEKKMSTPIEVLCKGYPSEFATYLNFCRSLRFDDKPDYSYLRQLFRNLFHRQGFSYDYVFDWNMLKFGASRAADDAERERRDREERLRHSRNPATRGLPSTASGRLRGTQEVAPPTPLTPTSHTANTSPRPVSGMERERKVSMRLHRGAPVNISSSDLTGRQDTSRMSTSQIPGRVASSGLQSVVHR
# Format: binding
# conditions: Compound Concentration 10 µM
measured.parameter: KINOMEscan: CSNK1D
Provide a numeric answer; units are not to be included.

Problem: Please list KINOMEscan: CSNK1D recorded for the molecule CCOc1cc(C(=O)N2CCC(N3CCN(C)CC3)CC2)ccc1Nc1ncc2c(n1)N(C1CCCC1)c1ccccc1C(=O)N2C
Result: 100

Problem: Please list KINOMEscan: CSNK1D recorded for the molecule COc1cc(C(=O)N2CCC(N3CCN(C)CC3)CC2)ccc1Nc1ncc2c(n1)N1CCc3cccc(c31)C(=O)N2C
Result: 60

Problem: Please list KINOMEscan: CSNK1D recorded for the molecule COc1cc(C(=O)N2CCC(N3CCN(C)CC3)CC2)ccc1Nc1ncc2c(n1)N(C1CCCC1)c1ccccc1C(=O)N2C
Result: 98

Problem: Please list KINOMEscan: CSNK1D recorded for the molecule COc1cc(C(=O)N2CCC(N3CCN(C)CC3)CC2)ccc1Nc1ncc2c(n1)N(C)c1ccccc1C(=O)N2C
Result: 81

* * *

Kindly state KINOMEscan: DAPK2 for each of the entries shown.
# subject.of.test: panel of 442 kinases (Homo sapiens)
# Construct: purchased KINOMEscan
# Assay type: binding
# conditions: Compound Concentration 10 µM
Provide a numeric answer; units are not to be included.

Problem: Print panel of 442 kinases (Homo sapiens) KINOMEscan: DAPK2 for COc1cc(C(=O)N2CCC(N3CCN(C)CC3)CC2)ccc1Nc1ncc2c(n1)N(C1CCCC1)c1ccccc1C(=O)N2C .
Result: 90

Problem: Print panel of 442 kinases (Homo sapiens) KINOMEscan: DAPK2 for COc1cc(C(=O)N2CCC(N3CCN(C)CC3)CC2)ccc1Nc1ncc2c(n1)N(C)c1ccccc1C(=O)N2C .
Result: 67

Problem: Print panel of 442 kinases (Homo sapiens) KINOMEscan: DAPK2 for COc1cc(C(=O)N2CCC(N3CCN(C)CC3)CC2)ccc1Nc1ncc2c(n1)N1CCc3cccc(c31)C(=O)N2C .
Result: 22

Problem: Print panel of 442 kinases (Homo sapiens) KINOMEscan: DAPK2 for CCOc1cc(C(=O)N2CCC(N3CCN(C)CC3)CC2)ccc1Nc1ncc2c(n1)N(C1CCCC1)c1ccccc1C(=O)N2C .
Result: 99

* * *

# subject.of.test: panel of 442 kinases (Homo sapiens)
# Construct: purchased KINOMEscan
# Sequence (P46734 1-347): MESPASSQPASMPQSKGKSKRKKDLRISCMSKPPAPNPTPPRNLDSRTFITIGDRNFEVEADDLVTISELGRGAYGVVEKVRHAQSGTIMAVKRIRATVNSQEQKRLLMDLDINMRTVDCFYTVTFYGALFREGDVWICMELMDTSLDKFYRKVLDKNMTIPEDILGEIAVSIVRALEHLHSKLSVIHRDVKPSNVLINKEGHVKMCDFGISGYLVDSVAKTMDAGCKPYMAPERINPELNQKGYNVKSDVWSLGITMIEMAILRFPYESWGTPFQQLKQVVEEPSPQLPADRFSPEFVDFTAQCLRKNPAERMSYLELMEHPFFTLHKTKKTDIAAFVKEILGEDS
# Format: binding
# conditions: Compound Concentration 10 µM
measured.parameter: KINOMEscan: MEK3
Provide a numeric answer; units are not to be included.

Problem: Please list KINOMEscan: MEK3 recorded for the compound COc1cc(C(=O)N2CCC(N3CCN(C)CC3)CC2)ccc1Nc1ncc2c(n1)N1CCc3cccc(c31)C(=O)N2C [Compound 24]
Result: 65

Problem: Please list KINOMEscan: MEK3 recorded for the compound COc1cc(C(=O)N2CCC(N3CCN(C)CC3)CC2)ccc1Nc1ncc2c(n1)N(C1CCCC1)c1ccccc1C(=O)N2C [Compound 25]
Result: 73

Problem: Please list KINOMEscan: MEK3 recorded for the compound COc1cc(C(=O)N2CCC(N3CCN(C)CC3)CC2)ccc1Nc1ncc2c(n1)N(C)c1ccccc1C(=O)N2C [15 (LRRK2-IN-1)]
Result: 75

Problem: Please list KINOMEscan: MEK3 recorded for the compound CCOc1cc(C(=O)N2CCC(N3CCN(C)CC3)CC2)ccc1Nc1ncc2c(n1)N(C1CCCC1)c1ccccc1C(=O)N2C [Compound 26]
Result: 86
